Reported KIDNEY_R values for a set of compounds
- Species on record: Rattus norvegicus
- protocol.notes: Open TG-GATES - Regimen: Daily Repeat
- Assay type: toxicity, organism-based, Sprague-Dawley
- Design: regimen Daily Repeat, gender Male, age 6 weeks
- assay.setup: in vivo, po, 0 mg/kg, […], tissue Kidney, route gavage, dose level Control, time 28 day
Kindly provide the numeric value in g only, without the unit symbol.

{"compound": "COC1=CC(=O)C[C@@H](C)[C@]12Oc1c(Cl)c(OC)cc(OC)c1C2=O [GRISEOFULVIN]", "KIDNEY_R (g)": 1.4}
{"compound": "CN1C(=O)CN=C(c2ccccc2)c2cc(Cl)ccc21 [DIAZEPAM]", "KIDNEY_R (g)": 1.5}

Kindly consider the entry below.
Query block: GET /values?readout=KIDNEY_R&item= NNC(=O)c1ccncc1 [ISONIAZID]
Result block: 1.3

* * *

- Species on record: Rattus norvegicus
- protocol.notes: Open TG-GATES - Regimen: Single
- Type: toxicity, organism-based, Sprague-Dawley
- Parameters: regimen Single, gender Male, age 6 weeks
- assay.setup: in vivo, po, 1000 mg/kg, 6 h, tissue Plasma, route gavage, dose level High
metric.name: DBIL (mg/dL)
Kindly provide the numeric value in mg/dL only, without the unit symbol.

Reference set, count: 2
{"compound": "COC1=CC(=O)C[C@@H](C)[C@]12Oc1c(Cl)c(OC)cc(OC)c1C2=O", "metric.name": "DBIL", "test.result": 0.092}
{"compound": "COc1ccc2[nH]c([S+]([O-])Cc3ncc(C)c(OC)c3C)nc2c1 (stereo not drawn)", "metric.name": "DBIL", "test.result": 0.072}

Query block: GET /values?readout=DBIL&item= NC(N)=Nc1nc(CSCCC(N)=NS(N)(=O)=O)cs1
Result block: 0.072

* * *

- Organism: Rattus norvegicus
- protocol.notes: Open TG-GATES - Regimen: Single
- Assay type: toxicity, organism-based, Sprague-Dawley
- Set-up: regimen Single, gender Male, age 6 weeks
- assay.setup: in vivo, po, 0 mg/kg, 3 h, tissue Liver, route gavage, dose level Control
metric.name: LIVER

Reference set, count: 5
{"compound": "CN(C)CCCN1c2ccccc2CCc2ccccc21", "LIVER": "9.1 g"}
{"compound": "CCOc1ccc(NC(=O)CC(C)O)cc1 (stereo not drawn)", "LIVER": "9.1 g"}
{"compound": "CCCNC(=O)NS(=O)(=O)c1ccc(Cl)cc1 [CHLORPROPAMIDE]", "LIVER": "8.8 g"}
{"compound": "CN(C)CCCN1c2ccccc2CCc2ccc(Cl)cc21", "LIVER": "9.4 g"}
{"compound": "CC1=C(/C=C/C(C)=C/C=C/C(C)=C/CO)C(C)(C)CCC1", "LIVER": "9 g"}

Query block: GET /values?readout=LIVER&item= CN1C(=O)CN=C(c2ccccc2)c2cc(Cl)ccc21
Result block: 10.2 g

Query block: GET /values?readout=LIVER&item= NC(N)=Nc1nc(CSCCC(N)=NS(N)(=O)=O)cs1
Result block: 10.4 g

Query block: GET /values?readout=LIVER&item= O=C(CCCN1CCC(O)(c2ccc(Cl)cc2)CC1)c1ccc(F)cc1
Result block: 10.1 g

* * *

- Organism: Rattus norvegicus
- protocol.notes: Open TG-GATES - Regimen: Single
- Type: toxicity, organism-based, Sprague-Dawley
- Parameters: regimen Single, gender Male, age 6 weeks
- assay.setup: in vivo, po, 10 mg/kg, 3 h, tissue Blood, route gavage, dose level Low
Reported APTT values for a set of compounds
Kindly provide the numeric value in s only, without the unit symbol.

{"compound": "CN(C)CCCN1c2ccccc2CCc2ccccc21 [IMIPRAMINE]", "APTT, s": 16.8}
{"compound": "CC1=C(/C=C/C(C)=C/C=C/C(C)=C/CO)C(C)(C)CCC1 [RETINOL]", "APTT, s": 21.9}

Kindly consider the entry below.
Query block: GET /values?readout=APTT&item= CN(C)CCCN1c2ccccc2CCc2ccc(Cl)cc21 [CLOMIPRAMINE]
Result block: 17.9
